Taken from the supplement of paper PMC12042874.

experiment: amyloid nucleation score (Sup35N fusion, yeast selection) (log enrichment); library NNK1; higher = more nucleation; inactive = no reads after selection;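 note: zero at mode of non-aggregating sequences after 7 days selection at 30°C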
Measurement Label: amyloid nucleation score

SHLLLHSLWSDPGIIVDLYT; inactive
SEQSMTY; inactive
YRFKFGVKWLAPNFLPAFGY; inactive

---

assay: amyloid nucleation score (Sup35N fusion, yeast selection) (log enrichment); library NNK3; higher = more nucleation; inactive = no reads after selection
Measurement Label: amyloid nucleation score

// solved cases for amyloid nucleation score follow
KSALYADLVGYLGSACMGSR; inactive
VYNVTITNYRNLPAM; 2.24
HIVLLKCIQAAETVAGFKW; inactive
RIGAPKRRSRTWKNPAWTGQ; inactive
NSFLRVIVC; inactive
RDHWNELGRDYGWTLCKKAY; inactive
LNSFSPGKNDCS; inactive
MRTNTPIFLVLGKIS; inactive

Input line: Looking for the measured amyloid nucleation score of FSPRKSLASLGITVVVDHCI , can you help?
Output line: -0.057

Input line: Looking for the measured amyloid nucleation score of SFNNININIVVFNVAPFSVH , can you help?
Output line: 2.51

Input line: Looking for the measured amyloid nucleation score of RTFVNGSAEYANASHWEYPN , can you help?
Output line: inactive

Input line: Looking for the measured amyloid nucleation score of CCGINGIKLAAANRWSPVEH , can you help?
Output line: inactive

Input line: Looking for the measured amyloid nucleation score of KISNFLTSSLCMYGSLRWRV , can you help?
Output line: 0.548
